- assay_text: Lipophilicity, log P of the compound
- Assay type: physicochemical
- study_conditions: octanol/water; read-out: logP
Class definitions on logP: bottom end = under 0.9, midrange = from 0.9 up to 2, top end = 2 and over

O=C(c1ccco1)C12CN3CN(CN(C3)C1)C2 : bottom end
NCC(=O)N(O)Cc1ccccc1 : bottom end
COc1ccc(-c2nn(CCC#N)c(=O)[nH]2)cc1 : midrange

Pick a category. Item: O=C(NCc1ccco1)c1cc(C(=O)NCc2ccco2)cc([N+](=O)[O-])c1
midrange

Another: O=C(O)CN1C(=O)c2ccccc2C1=O
bottom end

Another: O=C(CNc1ccc2ccccc2c1)N/N=C/c1ccccn1
top end

Another: O=C(O)CCC(=O)Nc1ccc(Oc2ccccc2)cc1
top end

Another: NNC(=O)c1cccc2cc[nH]c12
bottom end

Another: Cc1cc(C(=O)O)nn1-c1ccccc1
midrange

Another: O=C(CNC(=O)c1cccnc1)N/N=C/c1ccccn1
bottom end

====

- assay_text: Solubility of the compound in ethanol
- Format: physicochemical
measured_endpoint: solubility

# annotated cases, reported solubility shown
Cn1c(=N)n(CC(=O)O)c2ccccc21 : Soluble
Cc1cc(O)nc(-c2ccc(C(N)=O)cc2)n1 : Insoluble
COc1ccc(C(=O)/C=C/Nc2ccccc2C#N)cc1 : Insoluble
Cc1n[nH]c(Nc2ccccc2F)c1[N+](=O)[O-] : Insoluble
NNC(=O)c1cccc2cc[nH]c12 : Insoluble
O=C(Cc1n[nH]c(=O)[nH]c1=O)N/N=C/c1cccc([N+](=O)[O-])c1 : Insoluble

# get_value(readout='solubility', item= O=C1C=C(Nc2ccccc2O)c2ccccc2C1=O )
Soluble

Another: N#CC(C#N)=CNNC(=O)CNC(=O)c1ccccc1[N+](=O)[O-]
Insoluble

Another: NC(=O)NC(=O)C[n+]1ccc(C(N)=O)cc1
Insoluble

Another: COc1ccc(C(=O)CCC(=O)O)c(C)c1
Soluble

Another: O=C(O)CN1C(=O)c2ccccc2C1=O
Soluble

====

- assay_text: Lipophilicity, log P of the compound
- Type: physicochemical
- study_conditions: octanol/water; read-out: logP
Overview of reported logP across a group of compounds:
Write the number on its own, no unit after it.

# annotated cases, reported logP shown
CC(C)c1ccc(CN2CCN(CCO)CC2)cc1 : 1.93
CCOc1ccc(Nc2nc(CC(=O)O)cs2)cc1 : 2.29
CCc1ccc2[nH]c3nc(N/N=C/c4ccc(Cl)cc4)nnc3c2c1 : 7.15

# get_value(readout='logP', item= COc1ccc2[nH]c(SCC(N)=O)nc2c1 )
1.01

Another: CN1CCN(CCCn2cnc3c2c(=O)n(C)c(=O)n3C)CC1
-0.76

Another: O=C(Cc1ccc([N+](=O)[O-])cc1)N/N=C/c1ccc(O)cc1
3.41

Another: CC(=O)Nc1ccc(/N=C/c2ccco2)cc1
1.54

Another: Cc1ccc(NC(=O)c2cnccn2)cc1Cl
1.48

====

- assay_text: Solubility of the compound in methanol
- Assay type: physicochemical
measured_endpoint: solubility

# annotated cases, reported solubility shown
Cc1ccccc1C(=O)Nc1cc(C(=O)O)cc(C(=O)O)c1 : Insoluble
NC(=O)c1ccc(NC(=O)/C=C\C(=O)O)cc1Cl : Soluble
O=C(O)/C=C\C(=O)Nc1ccc(Nc2ccccc2)cc1 : Soluble
CC(C)c1ccc(CN2CCN(CCO)CC2)cc1 : Insoluble
O=C1OC(c2ccccc2)=N/C1=C\Nc1cccc([N+](=O)[O-])c1 : Insoluble

# get_value(readout='solubility', item= O=C(c1ccco1)C12CN3CN(CN(C3)C1)C2 )
Soluble
